# Protocol description: physchem
# Reported conditions: pH 2.3
Below, each entry is listed alongside its reported chromatographic logP.

>  <Cpd smiles>
Clc1cnc(Nc2ccsc2)nc1Cl

>  <chromatographic logP>
3.55

$$$$
>  <Cpd smiles>
Cc1ccc(NC(=O)OC(C)(C)C)s1

>  <chromatographic logP>
2.89

$$$$
>  <Cpd smiles>
O=c1[nH]c(Nc2ccsc2)ncc1Cl

>  <chromatographic logP>
1.38

$$$$
>  <Cpd smiles>
CC(=O)c1ccc(N)s1

>  <chromatographic logP>
0.42

$$$$
>  <Cpd smiles>
CC(=O)c1ccc(Nc2ncc(Cl)c(NC3CC3)n2)s1

>  <chromatographic logP>
1.87

$$$$

----------
# Reported conditions: pH 7.8
Below, each entry is listed alongside its reported logp [c].

>  <Cpd smiles>
CC(C)Nc1nc(Nc2ccsc2)ncc1Br

>  <logp [c]>
3.43[c];

$$$$
>  <Cpd smiles>
CS(=O)(=O)c1ccc(Nc2ncc(Cl)c(NC3CC3)n2)s1

>  <logp [c]>
2.02[c];

$$$$
>  <Cpd smiles>
C=CCN(C)C(=O)c1cc(Nc2ncc(Cl)c(NC3CC3)n2)cs1

>  <logp [c]>
2.65[c];

$$$$
>  <Cpd smiles>
FC(F)CNc1nc(Nc2ccsc2)ncc1Cl

>  <logp [c]>
2.72[c];

$$$$
>  <Cpd smiles>
CN(CC1CC1)C(=O)c1cc(Nc2ncc(Cl)c(NC3CC3)n2)cs1

>  <logp [c]>
2.86[c];

$$$$
>  <Cpd smiles>
Clc1cnc(Nc2ccsc2)nc1NC1CCC1

>  <logp [c]>
3.46[c];

$$$$
>  <Cpd smiles>
O=C(NO)c1cc(Nc2ncc(Cl)c(NC3CC3)n2)cs1

>  <logp [c]>
2.96[c];

$$$$
>  <Cpd smiles>
Cc1ccc(Nc2ncc(C(F)(F)F)c(NC3CC3)n2)s1

>  <logp [c]>
3.56[c];

$$$$
>  <Cpd smiles>
FC(F)(F)CNc1nc(Nc2ccsc2)ncc1Br

>  <logp [c]>
3.50[c]

$$$$
>  <Cpd smiles>
S=C(c1cc(Nc2ncc(Cl)c(NC3CC3)n2)cs1)N1CCCC1

>  <logp [c]>
3.23[c];

$$$$
>  <Cpd smiles>
FC(F)CNc1nc(Nc2ccsc2)ncc1Br

>  <logp [c]>
2.83[c];

$$$$
>  <Cpd smiles>
CCN(CC)C(=S)c1cc(Nc2ncc(Cl)c(NC3CC3)n2)cs1

>  <logp [c]>
3.51[c];

$$$$

----------
# Reported conditions: pH 2.7

>  <Compound>
Clc1cnc(Nc2ccsc2)nc1NC1CC1 [Example 1]

>  <logp [b]>
1.63[b]

$$$$
>  <Compound>
Cc1ccc(Nc2ncc(C(F)(F)F)c(NC3CC3)n2)s1 [Example 36]

>  <logp [b]>
3.22[b]

$$$$
>  <Compound>
CC(C)Nc1nc(Nc2ccsc2)ncc1Br [Example 28]

>  <logp [b]>
1.85[b]

$$$$
>  <Compound>
Brc1cnc(Nc2ccsc2)nc1NC1CCC1 [Example 3]

>  <logp [b]>
2.12[b]

$$$$
>  <Compound>
O=C(c1cc(Nc2ncc(Cl)c(NC3CC3)n2)cs1)N1CCOCC1 [Example 19]

>  <logp [b]>
1.45[b]

$$$$
>  <Compound>
Cc1ccc(Nc2ncc(Br)c(NC3CC3)n2)s1 [Example 44]

>  <logp [b]>
2.27[b]

$$$$
>  <Compound>
CC(C)Nc1nc(Nc2ccsc2)ncc1Cl [Example 27]

>  <logp [b]>
1.66[b]

$$$$
>  <Compound>
Clc1cc(Nc2ncc(Cl)c(NC3CC3)n2)cs1 [Example 41]

>  <logp [b]>
2.63[b]

$$$$
>  <Compound>
CS(=O)(=O)c1ccc(Nc2ncc(Cl)c(NC3CC3)n2)s1 [Example 33]

>  <logp [b]>
1.97[b]

$$$$
>  <Compound>
COCC(C)NC(=O)c1cc(Nc2ncc(Cl)c(NC3CC3)n2)cs1 (stereo not shown) [Example 24]

>  <logp [b]>
1.58[b]

$$$$
